Molecular target: UniProt Q9BY41
Sequence (Q9BY41 whole entry): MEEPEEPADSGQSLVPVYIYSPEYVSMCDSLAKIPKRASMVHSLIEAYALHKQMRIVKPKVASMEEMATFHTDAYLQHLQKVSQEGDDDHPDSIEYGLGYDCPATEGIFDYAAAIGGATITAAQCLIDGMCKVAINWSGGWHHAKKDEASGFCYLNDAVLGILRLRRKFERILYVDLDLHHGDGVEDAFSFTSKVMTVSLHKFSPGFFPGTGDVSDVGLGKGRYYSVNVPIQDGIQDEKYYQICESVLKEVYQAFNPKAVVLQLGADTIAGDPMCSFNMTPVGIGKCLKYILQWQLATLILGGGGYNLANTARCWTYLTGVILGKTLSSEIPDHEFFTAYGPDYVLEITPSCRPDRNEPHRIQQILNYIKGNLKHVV
Assay: Inhibition of human recombinant HDAC8
Readout: log10 IC50 (log10 of the value in µM)
Scale type: logarithmic (base 10). Underlying IC50 unit: µM.

What is its log10 IC50 for UniProt Q9BY41? Entry: "O=C(O)CCCc1ccccc1"
1.97

What about CCCC(CCC)C(=O)NO [VALPROPYLHYDROXAMIC ACID] ?
1.59

Moving on to the next compound: "CCCC(=O)O"
1.18

And the next one, CCCC(=O)NO [BUTYRYLHYDROXAMIC ACID] ?
1.41

Another compound to look at: O=C(CCCc1ccccc1)NO [PHENYLBUTYRYLHYDROXAMIC ACID]
0.60

###

Organism: Mus musculus
Experiment: Inhibition of HDAC in mouse primary forebrain neurons assessed as acetylation of histone H3 lysine 9 at 92.5 uM after 24 hrs by immunofluorescence assay
Active and inactive are the calls of the source. The calls are words filed in the database; no cut-off is given here.
Could you please pick one outcome from this set? 1 = active, 0 = inactive

# outcome recorded in this test, key = "O=C(O)CCCc1ccccc1"
0

Ok, now "CCCC(CCC)C(=O)O"
0

Request: "CCCC(=O)O"
0

Let us now turn to CCCC(CCC)C(=O)NO [VALPROPYLHYDROXAMIC ACID]
0

Now give it for O=C(CCCc1ccccc1)NO [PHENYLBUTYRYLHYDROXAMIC ACID] too.
1

Also CCCC(=O)NO [BUTYRYLHYDROXAMIC ACID] , if possible.
1

###

Target: Histone deacetylase 9 (Homo sapiens)
Sequence (Q9UKV0 whole entry): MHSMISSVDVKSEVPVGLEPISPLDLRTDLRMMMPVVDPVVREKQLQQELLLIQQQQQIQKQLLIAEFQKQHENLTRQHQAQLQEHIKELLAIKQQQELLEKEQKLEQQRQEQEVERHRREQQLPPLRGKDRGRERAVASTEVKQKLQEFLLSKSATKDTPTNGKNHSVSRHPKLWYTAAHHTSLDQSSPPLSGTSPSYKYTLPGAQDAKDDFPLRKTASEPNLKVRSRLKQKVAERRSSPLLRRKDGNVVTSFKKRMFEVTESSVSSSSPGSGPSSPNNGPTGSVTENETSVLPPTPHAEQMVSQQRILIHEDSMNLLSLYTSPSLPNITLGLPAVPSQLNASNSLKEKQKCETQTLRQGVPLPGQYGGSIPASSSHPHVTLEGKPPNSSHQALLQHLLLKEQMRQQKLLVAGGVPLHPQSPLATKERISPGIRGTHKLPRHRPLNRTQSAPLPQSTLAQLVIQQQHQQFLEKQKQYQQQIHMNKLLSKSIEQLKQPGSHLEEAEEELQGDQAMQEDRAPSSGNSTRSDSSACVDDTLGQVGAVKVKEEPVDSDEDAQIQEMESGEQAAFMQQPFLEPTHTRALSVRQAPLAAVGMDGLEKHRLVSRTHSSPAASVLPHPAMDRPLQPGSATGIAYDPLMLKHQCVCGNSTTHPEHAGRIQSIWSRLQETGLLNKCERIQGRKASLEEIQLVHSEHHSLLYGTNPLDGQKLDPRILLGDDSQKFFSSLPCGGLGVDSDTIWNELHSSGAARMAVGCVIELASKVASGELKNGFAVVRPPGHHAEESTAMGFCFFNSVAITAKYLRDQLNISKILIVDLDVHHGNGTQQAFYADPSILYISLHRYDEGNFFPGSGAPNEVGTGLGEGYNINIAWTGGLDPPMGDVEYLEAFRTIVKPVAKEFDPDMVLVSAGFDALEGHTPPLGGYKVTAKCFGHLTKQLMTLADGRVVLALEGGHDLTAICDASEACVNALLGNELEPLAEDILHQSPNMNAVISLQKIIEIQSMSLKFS
Assay: Inhibition of human recombinant HDAC9
pIC50: −log10 of the molar value.
Readout: pIC50

Which pIC50 is listed for O=C(CCCc1ccccc1)NO [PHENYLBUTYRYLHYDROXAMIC ACID] ?
3.37

Note, next up: CCCC(=O)O [BUTYRIC ACID]
< 2.70

Entry to check: CCCC(CCC)C(=O)O [VALPROIC ACID]
< 2.70

Query "O=C(O)CCCc1ccccc1" next
< 2.70

And then CCCC(=O)NO [BUTYRYLHYDROXAMIC ACID] , what is it?
< 2.70

Here is the next compound: CCCC(CCC)C(=O)NO [VALPROPYLHYDROXAMIC ACID]
4.04

###

Exercise: for every item that follows, state its recorded pIC50.
Target: Histone deacetylase 1 (Homo sapiens, UniProt Q13547)
Sequence (Q13547 whole entry): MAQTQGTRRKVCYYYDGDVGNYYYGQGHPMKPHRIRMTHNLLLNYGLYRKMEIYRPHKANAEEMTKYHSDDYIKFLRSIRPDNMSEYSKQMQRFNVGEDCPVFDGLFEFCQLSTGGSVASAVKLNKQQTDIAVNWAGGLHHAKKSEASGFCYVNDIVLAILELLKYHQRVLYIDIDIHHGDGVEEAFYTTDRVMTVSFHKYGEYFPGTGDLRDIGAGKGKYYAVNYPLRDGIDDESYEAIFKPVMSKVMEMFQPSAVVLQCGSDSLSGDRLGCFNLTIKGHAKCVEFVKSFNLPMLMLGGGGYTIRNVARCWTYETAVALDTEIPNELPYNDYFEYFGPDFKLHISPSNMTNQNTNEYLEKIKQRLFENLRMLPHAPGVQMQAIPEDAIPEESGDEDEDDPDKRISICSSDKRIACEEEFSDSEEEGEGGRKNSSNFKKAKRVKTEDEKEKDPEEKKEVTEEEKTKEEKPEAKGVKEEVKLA
Assay: Inhibition of human recombinant HDAC1
# pIC50: negative log10 of molar concentration; output just the value

Please look up its pIC50: CCCC(CCC)C(=O)NO [VALPROPYLHYDROXAMIC ACID]
3.25

Same again, this time with CCCC(CCC)C(=O)O [VALPROIC ACID]
4.41

Now give it for CCCC(=O)O [BUTYRIC ACID] too.
4.80

// next record CCCC(=O)NO [BUTYRYLHYDROXAMIC ACID]
5.15

###

Target: Histone deacetylase 5 (Homo sapiens, UniProt Q9UQL6)
Sequence (Q9UQL6 whole entry): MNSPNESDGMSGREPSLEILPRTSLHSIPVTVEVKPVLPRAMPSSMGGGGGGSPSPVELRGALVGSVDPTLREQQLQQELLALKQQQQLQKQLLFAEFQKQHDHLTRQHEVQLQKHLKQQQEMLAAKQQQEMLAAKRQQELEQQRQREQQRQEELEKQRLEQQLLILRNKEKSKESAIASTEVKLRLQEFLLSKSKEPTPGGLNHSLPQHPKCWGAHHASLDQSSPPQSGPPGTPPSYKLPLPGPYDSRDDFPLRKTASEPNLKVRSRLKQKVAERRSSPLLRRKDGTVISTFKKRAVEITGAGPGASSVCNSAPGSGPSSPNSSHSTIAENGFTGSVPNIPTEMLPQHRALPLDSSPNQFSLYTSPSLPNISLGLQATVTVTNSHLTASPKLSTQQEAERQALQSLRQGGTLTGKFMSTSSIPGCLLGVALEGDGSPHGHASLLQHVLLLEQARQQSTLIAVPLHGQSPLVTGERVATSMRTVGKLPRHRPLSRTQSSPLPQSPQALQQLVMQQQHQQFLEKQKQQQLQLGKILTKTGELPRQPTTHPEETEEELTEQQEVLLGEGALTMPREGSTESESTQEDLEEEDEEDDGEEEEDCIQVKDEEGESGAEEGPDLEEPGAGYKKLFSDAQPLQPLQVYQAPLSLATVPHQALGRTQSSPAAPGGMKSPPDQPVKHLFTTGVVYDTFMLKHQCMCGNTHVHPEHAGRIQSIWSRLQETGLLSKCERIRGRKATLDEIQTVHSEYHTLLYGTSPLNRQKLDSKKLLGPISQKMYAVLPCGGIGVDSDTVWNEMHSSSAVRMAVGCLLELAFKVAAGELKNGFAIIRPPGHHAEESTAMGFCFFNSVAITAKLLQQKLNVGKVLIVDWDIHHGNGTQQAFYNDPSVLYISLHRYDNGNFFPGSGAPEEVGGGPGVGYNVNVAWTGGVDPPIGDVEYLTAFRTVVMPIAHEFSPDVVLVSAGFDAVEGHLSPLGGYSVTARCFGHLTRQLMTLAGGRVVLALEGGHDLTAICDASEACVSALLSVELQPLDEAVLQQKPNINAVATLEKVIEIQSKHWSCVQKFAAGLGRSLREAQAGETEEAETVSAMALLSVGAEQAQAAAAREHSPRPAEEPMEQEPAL
Assay: Inhibition of human recombinant HDAC5
Readout: IC50 (µM)
All answers are understood in µM, so give the number only.

Data request, read-out IC50, for CCCC(=O)NO [BUTYRYLHYDROXAMIC ACID]
360

Next compound up: O=C(CCCc1ccccc1)NO [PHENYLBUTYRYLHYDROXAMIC ACID]
25

And the next one, CCCC(CCC)C(=O)NO [VALPROPYLHYDROXAMIC ACID] ?
37

All figures here come from ChEMBL document CHEMBL1671826.
